Please provide measured relative viability for the entries that follow.
Test system: KHOS-240S
Test: relative viability vs DMSO control (72 h) (fraction); higher = more viable cells
Details: 1.111 µM
Just the number, please, no unit after it.

Query: Name the recorded relative viability for Cc1cc(F)c(C(=O)Nc2cccc(-c3nncn3C(C)C)n2)cc1-n1cnc(C2CC2)c1 .
Response: 1.03

Query: Query (compound): CNC(=O)c1cccc2cc(Oc3ccnc4cc(OCC5(N)CC5)c(OC)cc34)ccc12 ; field requested: relative viability
Response: 0.817

Query: Data request, read-out relative viability, for COc1cc2ncnc(Nc3ccc(F)c(Cl)c3)c2cc1OCCCN1CCOCC1
Response: 1.01

Query: Return reported relative viability; argument: O=C(/C=C\n1cnc(-c2cc(C(F)(F)F)cc(C(F)(F)F)c2)n1)NNc1cnccn1 [Selinexor]
Response: 0.188

Query: What measured relative viability goes with CCOc1cc2ncc(C#N)c(Nc3ccc(OCc4ccccn4)c(Cl)c3)c2cc1NC(=O)/C=C/CN(C)C ?
Response: 0.741

Query: I have this compound here, CCS(=O)(=O)N1CC(CC#N)(n2cc(-c3ncnc4[nH]ccc34)cn2)C1 , and I need its recorded relative viability.
Response: 1.04

Query: What measured relative viability goes with CC(=O)c1c(C)c2cnc(Nc3ccc(N4CCNCC4)cn3)nc2n(C2CCCC2)c1=O ?
Response: 0.734

Query: Entry COC(=O)c1ccc2c(c1)NC(=O)/C2=C(\Nc1ccc(N(C)C(=O)CN2CCN(C)CC2)cc1)c1ccccc1 has what relative viability?
Response: 0.702

Query: What value of relative viability has been recorded for this entry: CN(C)C(=O)c1cc2cnc(Nc3ccc(N4CCNCC4)cn3)nc2n1C1CCCC1
Response: 1

====

Test system: SW872
Test: relative viability vs DMSO control (72 h) (fraction); higher = more viable cells
Details: 0.00017 µM
Label 1 when relative viability < 1; otherwise 0.

Query: hey, is relative viability for Cn1cnc2c(F)c(Nc3ccc(Br)cc3Cl)c(C(=O)NOCCO)cc21 [Selumetinib] lower than 1 or not?
Response: 1

Query: Confirm or reject: relative viability of CN(C)C/C=C/C(=O)Nc1cc2c(Nc3ccc(F)c(Cl)c3)ncnc2cc1O[C@H]1CCOC1 [Afatinib] lies strictly below 1
Response: 0

Query: Threshold test, relative viability < 1: CC(=O)c1c(C)c2cnc(Nc3ccc(N4CCNCC4)cn3)nc2n(C2CCCC2)c1=O [Palbociclib]
Response: 0

Query: Hello, I'm reviewing records and need to know if relative viability of CNC(=O)c1c(C)oc2cc(Oc3ncnc4cc(OC)c(OC)cc34)ccc12 [Fruquintinib] is below 1. Could you check?
Response: 0

Query: Please let me know if C=CC(=O)N1CCC(CNc2ncnc(N)c2-c2ccc(Oc3ccccc3)cc2)CC1 [Evobrutinib] shows relative viability below 1.
Response: 0

====

Tested on: HT1080
Test: standardised AUC of viability dose-response curve (72 h) (fraction (0-1)); higher = less growth inhibition (more resistant)
property name: standardised AUC
Write the value as a bare number.

Query: # get_value(readout='standardised AUC', item= Cc1c2oc3c(C)ccc(C(=O)N[C@@H]4C(=O)N[C@H](C(C)C)C(=O)N5CCC[C@H]5C(=O)N(C)CC(=O)N(C)[C@@H](C(C)C)C(=O)O[C@@H]4C)c3nc-2c(C(=O)N[C@@H]2C(=O)N[C@H](C(C)C)C(=O)N3CCC[C@H]3C(=O)N(C)CC(=O)N(C)[C@@H](C(C)C)C(=O)O[C@@H]2C)c(N)c1=O [DACTINOMYCIN] )
Response: 0.464

Query: For the compound shown here, CN(C)C(=O)c1cc2cnc(Nc3ccc(N4CCNCC4)cn3)nc2n1C1CCCC1 [RIBOCICLIB] , give the reported standardised AUC.
Response: 0.993

Query: For the compound CNC(=O)c1c(C)oc2cc(Oc3ncnc4cc(OC)c(OC)cc34)ccc12 [FRUQUINTINIB] , what standardised AUC is on record?
Response: 0.968

====

System: RD-ES
Assay: relative viability vs DMSO control (72 h) (fraction); higher = more viable cells
Settings: 0.00017 µM
Would you mind telling me the reported relative viability of each entry?

Query: Quick check: relative viability on RD-ES, item CC(=O)c1c(C)c2cnc(Nc3ccc(N4CCNCC4)cn3)nc2n(C2CCCC2)c1=O [Palbociclib] ?
Response: 0.959

Query: Can you look up relative viability on RD-ES for O=C(/C=C\n1cnc(-c2cc(C(F)(F)F)cc(C(F)(F)F)c2)n1)NNc1cnccn1 [Selinexor] ?
Response: 0.988

Query: Query the reported relative viability for RD-ES; item: COc1cc2ncnc(Nc3ccc(F)c(Cl)c3)c2cc1OCCCN1CCOCC1 [Gefitinib]
Response: 0.944

Query: Return relative viability measured with RD-ES given this compound: CNC(=O)c1c(C)oc2cc(Oc3ncnc4cc(OC)c(OC)cc34)ccc12 [Fruquintinib]
Response: 0.93

Query: Form field: relative viability recorded for CS(=O)(=O)CCNCc1ccc(-c2ccc3ncnc(Nc4ccc(OCc5cccc(F)c5)c(Cl)c4)c3c2)o1 [Lapatinib] with RD-ES (enter value)
Response: 0.951

Query: Report relative viability for O=C(c1ccc(F)c(F)c1Nc1ccc(I)cc1F)N1CC(O)([C@@H]2CCCCN2)C1 [Cobimetinib] tested on RD-ES.
Response: 0.999

Query: Please provide the recorded relative viability for COC(=O)c1ccc2c(c1)NC(=O)/C2=C(\Nc1ccc(N(C)C(=O)CN2CCN(C)CC2)cc1)c1ccccc1 [Nintedanib] , tested on RD-ES.
Response: 0.955

Query: Find relative viability (RD-ES) for the entry COc1cc(Nc2ncc3c(n2)-c2ccc(Cl)cc2C(c2c(F)cccc2OC)=NC3)ccc1C(=O)O [Alisertib]
Response: 0.95

Query: Give relative viability (RD-ES) of the following compound: Cc1[nH]c(/C=C2\C(=O)Nc3ccccc32)c(C)c1CCC(=O)O [Orantinib]
Response: 1.02

Query: Identify the measured relative viability of CN(C)C(=O)c1cc2cnc(Nc3ccc(N4CCNCC4)cn3)nc2n1C1CCCC1 [Ribociclib] for RD-ES.
Response: 0.961

====

System: G401
Assay: relative viability vs DMSO control (72 h) (fraction); higher = more viable cells
Conditions: 0.04115 µM
property name: relative viability
The answer should be written as a number, with no unit following it.

Query: relative viability for CN(C)C(=O)c1cc2cnc(Nc3ccc(N4CCNCC4)cn3)nc2n1C1CCCC1 ?
Response: 0.899

Query: Data request, read-out relative viability, for CN(C)C/C=C/C(=O)Nc1cc2c(Nc3ccc(F)c(Cl)c3)ncnc2cc1O[C@H]1CCOC1
Response: 0.981

Query: # query: relative viability of entry O=C1CCc2c(Oc3ccc4c(c3)[C@@H]3[C@H](O4)[C@H]3c3nc4cc(C(F)(F)F)ccc4[nH]3)ccnc2N1
Response: 1.03

Query: Return reported relative viability; argument: Cc1c2oc3c(C)ccc(C(=O)N[C@@H]4C(=O)N[C@H](C(C)C)C(=O)N5CCC[C@H]5C(=O)N(C)CC(=O)N(C)[C@@H](C(C)C)C(=O)O[C@@H]4C)c3nc-2c(C(=O)N[C@@H]2C(=O)N[C@H](C(C)C)C(=O)N3CCC[C@H]3C(=O)N(C)CC(=O)N(C)[C@@H](C(C)C)C(=O)O[C@@H]2C)c(N)c1=O
Response: 0.211

Query: relative viability lookup needed for Cc1[nH]c(/C=C2\C(=O)Nc3ccccc32)c(C)c1CCC(=O)O [Orantinib] , thanks.
Response: 1.04

Query: Look at this molecule and give its reported relative viability. CC(=O)c1c(C)c2cnc(Nc3ccc(N4CCNCC4)cn3)nc2n(C2CCCC2)c1=O
Response: 0.938

Query: Which relative viability value is on record for COc1cc(Nc2ncc3c(n2)-c2ccc(Cl)cc2C(c2c(F)cccc2OC)=NC3)ccc1C(=O)O ?
Response: 0.845

Query: Item CN(C)CCCOc1ccc(-c2ccc3ncc4c(c3c2)n(C2CCOCC2)c(=O)n4C)cn1 has what recorded relative viability?
Response: 1.05

====

Would you mind telling me the reported relative viability of each entry?
Test system: G401
Test: relative viability vs DMSO control (72 h) (fraction); higher = more viable cells
Conditions: 0.00051 µM
Returns: the value as a bare number; no unit string appended.

Query: What measured relative viability goes with O=C(/C=C\n1cnc(-c2cc(C(F)(F)F)cc(C(F)(F)F)c2)n1)NNc1cnccn1 [Selinexor] ?
Response: 1.05

Query: What value of relative viability has been reported for the following compound? Cc1c2oc3c(C)ccc(C(=O)N[C@@H]4C(=O)N[C@H](C(C)C)C(=O)N5CCC[C@H]5C(=O)N(C)CC(=O)N(C)[C@@H](C(C)C)C(=O)O[C@@H]4C)c3nc-2c(C(=O)N[C@@H]2C(=O)N[C@H](C(C)C)C(=O)N3CCC[C@H]3C(=O)N(C)CC(=O)N(C)[C@@H](C(C)C)C(=O)O[C@@H]2C)c(N)c1=O [Dactinomycin]
Response: 0.877

Query: # get_value(readout='relative viability', item= O=C1CCc2c(Oc3ccc4c(c3)[C@@H]3[C@H](O4)[C@H]3c3nc4cc(C(F)(F)F)ccc4[nH]3)ccnc2N1 [Lifirafenib] )
Response: 1.03

Query: For the compound shown here, CNC(=O)c1c(C)oc2cc(Oc3ncnc4cc(OC)c(OC)cc34)ccc12 [Fruquintinib] , give the reported relative viability.
Response: 1.02

Query: Need relative viability of CC(=O)c1c(C)c2cnc(Nc3ccc(N4CCNCC4)cn3)nc2n(C2CCCC2)c1=O [Palbociclib] , thanks.
Response: 1.03

Query: Could you tell me which relative viability is on file for Cc1[nH]c(/C=C2\C(=O)Nc3ccccc32)c(C)c1CCC(=O)O [Orantinib] ?
Response: 1.11

Query: # query: relative viability of entry COc1cc(N2CCC(N3CCN(C)CC3)CC2)ccc1Nc1ncc(Cl)c(Nc2ccccc2P(C)(C)=O)n1 [Brigatinib]
Response: 0.972

Query: Need relative viability of C=CC(=O)N1CCC(CNc2ncnc(N)c2-c2ccc(Oc3ccccc3)cc2)CC1 [Evobrutinib] , thanks.
Response: 1.01

Query: I am curious: what relative viability value has been reported for Cc1cc(F)c(C(=O)Nc2cccc(-c3nncn3C(C)C)n2)cc1-n1cnc(C2CC2)c1 [Selonsertib] ?
Response: 0.988

Query: // returns reported relative viability for input CCS(=O)(=O)N1CC(CC#N)(n2cc(-c3ncnc4[nH]ccc34)cn2)C1 [Baricitinib]
Response: 0.956

Query: Reported relative viability, compound CO[C@H]1C[C@@H]2CC[C@@H](C)[C@@](O)(O2)C(=O)C(=O)N2CCCC[C@H]2C(=O)O[C@H]([C@H](C)C[C@@H]2CC[C@@H](OC(=O)C(C)(CO)CO)[C@H](OC)C2)CC(=O)[C@H](C)/C=C(\C)[C@@H](O)[C@@H](OC)C(=O)[C@H](C)C[C@H](C)/C=C/C=C/C=C/1C [Temsirolimus] : ____
Response: 0.917
